Study System: T1, 4H2473-bN
T1 chain: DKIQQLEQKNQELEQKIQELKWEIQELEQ
Assay Summary: two-hybrid library CCNG1;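 further: natural log of median RNA to DNA barcode read ratio; higher means stronger binding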
Recorded Metric: interaction score
Answer field: number only, no words.

-- ask Report interaction score for DKIQQLEQKNQELEQKIQELKWEIQELEQ [4H2473-bN] please.
-- reply 0.273

-- ask For DKIQQLEQEIQELKQENQELEWKIQELKQ [4H2134-bN] then?
-- reply 0.214

-- ask For DKIQQLEQKNQELEQEIQELEWKIQELKQ [4H2438-bN] then?
-- reply 1.05

-- ask For DEIQQLEQEIQELKQKNQELKWEIQELEQ [4H121-bN] then?
-- reply -0.436

-- ask For DKIQQLEQENQELEQKIQELKWKNQELEQ [4H2223-bN] then?
-- reply -0.941

-- ask For DEIQQLEQENQELEQKNQELEWKIQELKQ [4H182-bN] then?
-- reply -0.481

-- ask For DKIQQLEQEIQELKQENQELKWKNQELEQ [4H2143-bN] then?
-- reply -0.596
